Can you tell me percent response for the items I'm about to list?
# Test system: MEKK2 (MAP3K2) mutant PB1 domain binding MEK5, human
# assayMethodText: mutant MEKK2 PB1-MEK5 binding signal retest – biochemical, single concentration, multiplex bead flow cytometry, confirmation (AID 1893);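 further: higher means compound restores mutant binding toward wildtype level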
# assaySetup: Alexa488-MEK5 binding to MEKK2 mutant, at 10 µM, active compounds read high
Hit rate of the full screen: of about 5,900 compounds, about 120 (2%) were called active. The list is a sample of the results.
Numbers only, in %.

CCCCNC(=O)N1CCCC(N(C)CCc2ccc(OC)c(OC)c2)C1 (stereo unspecified): -2
Cc1nn(-c2ccccc2)c(C)c1NC(=O)CCl: -2
Cc1ccccc1-c1ccc(Nc2ccc(C(=O)N3CCOCC3)cc2)nn1: 4
CCOC(=O)c1c(NC(=O)c2ccc(S(=O)(=O)N(C)CC3CCCO3)cc2)sc2c1CC(C)(C)NC2(C)C (stereo unspecified): 7
CN(C)CCCN(C(=O)COc1ccccc1)c1nc2c(Cl)cccc2s1: 18
COc1cccc(/C(C)=N/Nc2ncc(Cl)cc2Cl)c1: -3
COc1ccc(CCNC(=O)CSc2nnc3ccc(-c4ccncc4)nn23)cc1: 6
CN1C(=O)/C(=C\c2ccc(-c3ccccc3)o2)SC1=S: -31
CC(=O)N1CCN(S(=O)(=O)c2ccc(C)c([N+](=O)[O-])c2)C1C(C)C (stereo unspecified): -1
COc1ccccc1OCCNCC(O)COc1cccc2[nH]c3ccccc3c12 (stereo unspecified): 34

INPUT: Could you share which percent response value was measured for "CCc1ccc2nc(Nc3ncc(C(C)=O)c(C)n3)nc(C)c2c1" ?
OUTPUT: 0

Where do these numbers come from? They come from PubChem BioAssay AID1893.
